All values here come from patent US7776862B2.

measured.on: human CXCR3 (N-delta 4) (Homo sapiens, UniProt P49682)
Construct: CD8 leader; Flag tag; expressed in transfected cells; membranes used
Sequence (P49682 5-368 limits assumed): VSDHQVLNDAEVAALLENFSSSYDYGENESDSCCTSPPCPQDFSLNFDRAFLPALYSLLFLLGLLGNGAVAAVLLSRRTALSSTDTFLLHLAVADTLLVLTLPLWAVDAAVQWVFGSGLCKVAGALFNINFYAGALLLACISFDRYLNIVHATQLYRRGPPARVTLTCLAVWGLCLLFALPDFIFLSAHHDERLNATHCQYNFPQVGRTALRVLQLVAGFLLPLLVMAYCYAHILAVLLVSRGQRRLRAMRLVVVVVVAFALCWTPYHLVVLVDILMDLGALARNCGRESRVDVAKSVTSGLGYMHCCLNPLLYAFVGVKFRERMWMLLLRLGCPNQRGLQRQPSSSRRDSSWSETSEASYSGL
run.description: Human CXCR3 (N-delta 4) scintillation proximity assay (SPA), [125I] IP-10 binding
assay.context: IC50 rating; Ba/F3-hCXCR3 (N-delta 4) membranes, 25 pM [125I] IP-10
measured.property: IC50

Below: 3 compounds and their reported IC50.
{"chemical.string": "O=C(NCc1ccc(F)cc1)c1cnc(N2CCN(C3CCN(Cc4ccc(Cl)c(F)c4)CC3)CC2)c(Cl)c1", "IC50": "25 to 100 nM"}
{"chemical.string": "CC[C@H]1CN(c2ncc(C(=O)NC)cc2Cl)CCN1C1CCN(C(=O)c2ccc(C#N)cc2)CC1", "IC50": "25 to 100 nM"}
{"chemical.string": "CCNC(=O)c1cnc(N2CCN(C3(CC)CCN(Cc4ccc(Cl)cc4)CC3)CC2)c(Cl)c1", "IC50": "> 100 nM"}

Prompt: Please report the recorded IC50 for `CC[C@H]1CN(c2ncc(CO)cc2Cl)CCN1C1CCN(Cc2ccc(Br)cc2)CC1` .
Completion: < 25 nM

Prompt: May I ask what IC50 has been recorded for `CC[C@H]1CN(c2ncc(CNC(=O)NCC(F)(F)F)cc2Cl)CCN1C1CCN(C(=O)c2ccc(Br)cc2)CC1` ?
Completion: < 25 nM

Prompt: So what does the record say about IC50 for `COc1ccc(CN2CCC(N3CCN(c4ncc(C(=O)NCc5ccc(F)c(Cl)c5)cc4Cl)CC3)CC2)cc1` ?
Completion: 25 to 100 nM

====

The compounds listed here are annotated with their pIC50.
measured.on: human CXCR3 (N-delta 4) (Homo sapiens, UniProt P49682)
Construct: CD8 leader; Flag tag; expressed in transfected cells; membranes used
Sequence (P49682 5-368 limits assumed): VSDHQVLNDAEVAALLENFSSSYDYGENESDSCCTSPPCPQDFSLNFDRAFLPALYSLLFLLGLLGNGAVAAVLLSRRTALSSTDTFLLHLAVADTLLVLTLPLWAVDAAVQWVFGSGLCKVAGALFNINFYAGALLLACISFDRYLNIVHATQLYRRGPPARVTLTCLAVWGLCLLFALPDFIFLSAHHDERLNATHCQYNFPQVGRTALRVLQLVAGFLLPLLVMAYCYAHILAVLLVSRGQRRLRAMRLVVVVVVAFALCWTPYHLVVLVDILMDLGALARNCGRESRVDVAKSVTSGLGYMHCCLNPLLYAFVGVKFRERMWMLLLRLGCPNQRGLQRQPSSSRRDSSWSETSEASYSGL
run.description: Human CXCR3 (N-delta 4) scintillation proximity assay (SPA), [125I] IP-10 binding
assay.context: IC50 rating; Ba/F3-hCXCR3 (N-delta 4) membranes, 25 pM [125I] IP-10
pIC50: −log10 of the molar value.

{"chemical.string": "CC[C@H]1CN(c2ncc(CN/C(=N\\C#N)NCC(F)(F)F)cc2Cl)CCN1C1CCN(Cc2ccc(Cl)cc2F)CC1", "pIC50": "> 7.60"}
{"chemical.string": "CNC(=O)c1cnc(N2CCN(C3CCN([C@@H](C)c4ccc(Cl)cc4)CC3)[C@@H](C)C2)c(Cl)c1", "pIC50": "< 7.00"}
{"chemical.string": "C[C@@H]1CN(c2ncc(C(=O)NCC3CCCCC3)cc2Cl)CCN1C1CCN(C(=O)c2ccc(C#N)cc2)CC1", "pIC50": "> 7.60"}

Could you now consider this next compound?
Prompt: Recorded pIC50 of `CC1(N2CCN(c3ncc(C(=O)NCC4CCCCC4)cc3Cl)CC2)CCN(Cc2ccc(Cl)cc2)CC1` , please.
Completion: 7.00 to 7.60

====

The molecules listed here are annotated with their pIC50.
measured.on: human CXCR3 (N-delta 4) (Homo sapiens)
Construct: CD8 leader; Flag tag; expressed in transfected cells; membranes used
Sequence (P49682 5-368 limits assumed): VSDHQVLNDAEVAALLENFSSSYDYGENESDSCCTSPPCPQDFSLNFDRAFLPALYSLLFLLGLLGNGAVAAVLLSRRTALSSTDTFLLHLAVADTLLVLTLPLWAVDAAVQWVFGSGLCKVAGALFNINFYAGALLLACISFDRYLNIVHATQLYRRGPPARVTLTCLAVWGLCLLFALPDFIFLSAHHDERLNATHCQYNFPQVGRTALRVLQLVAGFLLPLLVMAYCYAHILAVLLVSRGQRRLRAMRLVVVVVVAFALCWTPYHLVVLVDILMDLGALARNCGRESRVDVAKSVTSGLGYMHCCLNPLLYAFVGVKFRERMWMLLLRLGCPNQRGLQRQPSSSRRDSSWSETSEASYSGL
run.description: Human CXCR3 (N-delta 4) scintillation proximity assay (SPA), [125I] IP-10 binding
assay.context: IC50 rating; Ba/F3-hCXCR3 (N-delta 4) membranes, 25 pM [125I] IP-10
pIC50: −log10 of the molar value.

{"molecule": "O=C(NCc1ccc(F)cc1)c1cnc(N2CCN(C3CCN(Cc4ccc(F)c(F)c4)CC3)CC2)c(Cl)c1 [compound 106]", "measured.on": "human CXCR3 (N-delta 4) (Homo sapiens)", "observed.value": "7.00 to 7.60"}

Attention now shifts to the item below.
Prompt: For the molecule shown here, O=C(NCc1ccc(F)c(Cl)c1)c1cnc(N2CCN(C3CCN(Cc4ccc(Br)cc4F)CC3)CC2)c(Cl)c1 [compound 33] , give the reported pIC50.
Completion: < 7.00

====

measured.on: human CXCR3 (N-delta 4) (Homo sapiens)
Construct: CD8 leader; Flag tag; expressed in transfected cells; membranes used
run.description: Human CXCR3 (N-delta 4) scintillation proximity assay (SPA), [125I] IP-10 binding
assay.context: IC50 rating; Ba/F3-hCXCR3 (N-delta 4) membranes, 25 pM [125I] IP-10
pIC50: −log10 of the molar value.
In this section, each of the compounds is paired with its reported pIC50.

Prompt: For `COc1ccc(CN2CCC(N3CCN(c4ncc(C(=O)NCc5ccc(Cl)cc5F)cc4Cl)CC3)CC2)cc1` , what is its reported pIC50?
Completion: 7.00 to 7.60

Prompt: # query: pIC50 of entry `CC[C@H]1CN(c2ncc(C(=N)NN)cc2Cl)CCN1C1CCN(Cc2ccc(Cl)cc2F)CC1`
Completion: 7.00 to 7.60

Prompt: If you can, please state the reported pIC50 value of `CCNC(=O)NCc1cnc(N2CCN(C3CCN(Cc4ccc(Cl)cc4F)CC3)[C@@H](CC)C2)c(Cl)c1` .
Completion: > 7.60

Prompt: Query: pIC50; subject: `N#Cc1ccc(CN2CCC(N3CCN(c4ncc(C(=O)NCc5ccc(Cl)cc5Cl)cc4Cl)CC3)CC2)cc1`
Completion: < 7.00

====

measured.on: human CXCR3 (N-delta 4) (Homo sapiens, UniProt P49682)
Construct: CD8 leader; Flag tag; expressed in transfected cells; membranes used
Sequence (P49682 5-368 limits assumed): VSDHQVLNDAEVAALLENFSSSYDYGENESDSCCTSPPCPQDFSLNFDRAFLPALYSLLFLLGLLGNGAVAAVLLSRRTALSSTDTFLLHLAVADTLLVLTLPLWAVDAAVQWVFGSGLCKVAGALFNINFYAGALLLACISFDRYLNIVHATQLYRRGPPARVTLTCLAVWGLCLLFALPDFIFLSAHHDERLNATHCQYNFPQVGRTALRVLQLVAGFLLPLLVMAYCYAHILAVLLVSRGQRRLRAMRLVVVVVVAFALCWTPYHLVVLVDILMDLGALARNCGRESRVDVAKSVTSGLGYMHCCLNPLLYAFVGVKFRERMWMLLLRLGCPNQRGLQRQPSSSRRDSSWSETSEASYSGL
run.description: Human CXCR3 (N-delta 4) scintillation proximity assay (SPA), [125I] IP-10 binding
assay.context: IC50 rating; Ba/F3-hCXCR3 (N-delta 4) membranes, 25 pM [125I] IP-10
measured.property: IC50

Consider the reported IC50 for these compounds:
{"chemical.string": "CC[C@H]1CN(c2ncc(CN(C(=O)Nc3c(C)noc3C)C(=O)Nc3c(C)noc3C)cc2Cl)CCN1C1CCN(Cc2ccc(Cl)cc2F)CC1", "observed.value": "> 100 nM"}
{"chemical.string": "O=C(NCc1ccc(F)cc1F)c1cnc(N2CCN(C3CCN(Cc4ccc(F)cc4F)CC3)CC2)c(Cl)c1", "observed.value": "> 100 nM"}
{"chemical.string": "O=C(NCc1ccc(Cl)cc1F)c1cnc(N2CCN(C3CCN(Cc4ccc(Cl)cc4)CC3)CC2)c(Cl)c1", "observed.value": "25 to 100 nM"}

# next compound below
Prompt: Look up IC50 with human CXCR3 (N-delta 4) (Homo sapiens, UniProt P49682) for this compound: `O=C(NCc1ccc(F)c(F)c1)c1cnc(N2CCN(C3CCN(Cc4ccc(Cl)cc4)CC3)CC2)c(I)c1`
Completion: < 25 nM
